system: MALME-3M melanoma; assay: NCI tumour cell line growth inhibition, 48 h
Mark f for TGI values under 20 µM, and t for everything at or above.

>  <COMPOUND>
CC(C)(C)c1ccc(C(C)(C)C)c(N2C(=O)C3ON=C(c4ccc([N+](=O)[O-])cc4)C3C2=O)c1 (stereo not given)

>  <CLASSIFICATION>
t

$$$$
>  <COMPOUND>
O=C1ON=C2C3CC4CC12CC1(C3)C(=O)ON=C41

>  <CLASSIFICATION>
t

$$$$
>  <COMPOUND>
O=C(O)C1CCCCC1c1c2ccc(=O)cc-2oc2cc(O)ccc12 (stereo not given)

>  <CLASSIFICATION>
t

$$$$
>  <COMPOUND>
O=C(Nc1ccccc1)Nc1cccc(Oc2nnc(Cl)c3ccccc23)c1

>  <CLASSIFICATION>
f

$$$$
>  <COMPOUND>
NS(=O)(=O)c1ccc(NC(=O)c2cccc3cc4ccccc4nc23)cc1

>  <CLASSIFICATION>
t

$$$$
>  <COMPOUND>
CCCCCCCCCCCCCCCCCCOCC(COP(=O)([O-])OCC[N+](C)(C)C)OC (stereo not given)

>  <CLASSIFICATION>
t

$$$$
>  <COMPOUND>
O=C(/C=C/c1ccccc1Cl)c1ccc(Cl)cc1Cl

>  <CLASSIFICATION>
t

$$$$
>  <COMPOUND>
COC(=O)C1C(OCc2ccccc2)C2CCC1(OC)C=C2C (stereo not given)

>  <CLASSIFICATION>
t

$$$$
>  <COMPOUND>
O=C(N/N=C\c1ccccc1)Nc1cccc2ccccc12

>  <CLASSIFICATION>
t

$$$$
>  <COMPOUND>
CC[C@@]12C=CC(=S)N(CCSc3ccccc3)[C@@H]1c1c(n(S(=O)(=O)c3ccc(OC)cc3)c3ccccc13)CC2

>  <CLASSIFICATION>
t

$$$$
>  <COMPOUND>
CCOC(=O)Cn1c(=O)c2cc(-c3ccccc3)cc3c(Cl)nc4c(OC)c(OC)cc1c4c32

>  <CLASSIFICATION>
t

$$$$
>  <COMPOUND>
CCNCCCn1c2c(c3ccc([N+](=O)[O-])cc3c1=O)C(=O)c1cc(OC)cnc1-2

>  <CLASSIFICATION>
f

$$$$
>  <COMPOUND>
CC(=O)O[C@H]1[C@@H](OC(C)=O)C(C)(C)/C=C/[C@H](C)C(=O)[C@@]2(OC(C)=O)C[C@@](C)(OC(C)=O)[C@H](OC(C)=O)[C@@H]2[C@H]2OC(=O)CC[C@@]2(OC(=O)c2ccccc2)[C@@H]1OCC(C)C

>  <CLASSIFICATION>
t

$$$$
>  <COMPOUND>
O=C1NN(c2ccccc2)C(=O)/C1=C/c1ccc(Br)o1

>  <CLASSIFICATION>
f

$$$$
>  <COMPOUND>
Cc1cc(N(CCCl)CCCl)ccc1/C=N/NC(=O)Cc1cc(=O)oc2cc(O)ccc12

>  <CLASSIFICATION>
t

$$$$
>  <COMPOUND>
CCOC(=O)/C(=C\c1ccc[nH]1)C(=O)c1ccccc1

>  <CLASSIFICATION>
t

$$$$
>  <COMPOUND>
CC(C)CN(CC(C)C)C(=O)C1CCCC[C@@H]1C(=O)O (stereo not given in full)

>  <CLASSIFICATION>
t

$$$$
>  <COMPOUND>
Cc1c(N=Cc2ccc(N(CCC#N)CCC#N)cc2)c(=O)n(-c2ccccc2)n1C

>  <CLASSIFICATION>
t

$$$$
>  <COMPOUND>
Oc1ccc(O)c(CNc2ccccc2)c1

>  <CLASSIFICATION>
t

$$$$
>  <COMPOUND>
N#Cc1ccc(Oc2nc3ccc(C(F)(F)F)cc3nc2-c2ccccc2)cc1

>  <CLASSIFICATION>
t

$$$$
>  <COMPOUND>
CC(=O)N1c2ccccc2C(C)C1c1[nH]c2ccccc2c1C (stereo not given)

>  <CLASSIFICATION>
t

$$$$
>  <COMPOUND>
NC1CCC(N[C@@H]2C[C@H]2c2ccccc2)CC1 (stereo not given in full)

>  <CLASSIFICATION>
t

$$$$
>  <COMPOUND>
C=C1C(=O)OC2CC(C)C3C=CC(=O)C3CC12 (stereo not given)

>  <CLASSIFICATION>
f

$$$$
>  <COMPOUND>
COC(=O)c1ccccc1C1CN=NC12Cc1cccc(C)c1C2=O (stereo not given)

>  <CLASSIFICATION>
t

$$$$

* * *

test system: SN12C renal; assay: NCI tumour cell line growth inhibition, 48 h

>  <COMPOUND>
O=C(NCc1ccncc1)C1COc2cc(-c3cc(=O)c4ccccc4o3)ccc2O1 (centres undefined)

>  <TGI>
> 100 µM

$$$$
>  <COMPOUND>
C#CCn1c(=O)c(Cl)cn(/C(=C/C(=O)OCC)C(=O)OCC)c1=O

>  <TGI>
50.6 µM

$$$$
>  <COMPOUND>
CCSc1nc(N)c2c(-c3ccccc3)c3c(nc2n1)CCC3

>  <TGI>
> 100 µM

$$$$
>  <COMPOUND>
C=CCn1cc(C(=O)NC(=O)NCCCCCOC(=O)CCCCCCCCCCC(=O)OCCCCCNC(=O)NC(=O)c2cn(CC=C)c(=O)n(C)c2=O)c(=O)n(C)c1=O

>  <TGI>
> 100 µM

$$$$
>  <COMPOUND>
CC[C@@]12C=CC(=S)N(CCSc3ccccc3)[C@@H]1c1c(n(S(=O)(=O)c3ccc(OC)cc3)c3ccccc13)CC2

>  <TGI>
> 100 µM

$$$$
>  <COMPOUND>
COc1ccccc1NC(=O)O/N=C(/Cl)C(C)C

>  <TGI>
31.7 µM

$$$$
>  <COMPOUND>
Cc1ccc(C(=O)Nc2ccc(S(=O)(=O)O)c3cc(S(=O)(=O)O)cc(S(=O)(=O)O)c23)cc1NC(=O)c1cccc(NC(=O)Nc2cccc(C(=O)Nc3cc(C(=O)Nc4ccc(S(=O)(=O)O)c5cc(S(=O)(=O)O)cc(S(=O)(=O)O)c45)ccc3C)c2)c1 (tested in a mixture with another compound)

>  <TGI>
> 50 µM

$$$$
>  <COMPOUND>
Cn1cnc([N+](=O)[O-])c1Sc1nnnn1-c1ccccc1

>  <TGI>
29.7 µM

$$$$
>  <COMPOUND>
CCOC(=O)/C(=C\c1ccc[nH]1)C(=O)c1ccccc1

>  <TGI>
> 100 µM

$$$$
>  <COMPOUND>
CC(C)C(=O)/C=C/c1ccc(Cl)c(Cl)c1

>  <TGI>
29.2 µM

$$$$
>  <COMPOUND>
OCC(O)C(O)C(O)/C=N/Nc1nc2ccccc2nc1-c1ccccc1 (centres undefined)

>  <TGI>
> 100 µM

$$$$
>  <COMPOUND>
CC(=O)N1c2ccccc2C(C)C1c1[nH]c2ccccc2c1C (centres undefined)

>  <TGI>
33.9 µM

$$$$
>  <COMPOUND>
COc1ccccc1-c1cc(=O)c2ccc(OC)c(OC)c2o1

>  <TGI>
> 100 µM

$$$$
>  <COMPOUND>
COc1cc2c(cc1OCCCC(=O)Nc1cc(C(=O)NCCCN(C)C)n(C)n1)N=CC1CCCN1C2=O (centres undefined)

>  <TGI>
> 24.6 µM

$$$$
>  <COMPOUND>
COC(=O)C1C(OCc2ccccc2)C2CCC1(OC)C=C2C (centres undefined)

>  <TGI>
> 100 µM

$$$$
>  <COMPOUND>
NC1CCC(N[C@@H]2C[C@H]2c2ccccc2)CC1 (some centres undefined)

>  <TGI>
> 100 µM

$$$$
>  <COMPOUND>
CCOC(=O)Cn1c(=O)c2cc(-c3ccccc3)cc3c(Cl)nc4c(OC)c(OC)cc1c4c32

>  <TGI>
> 100 µM

$$$$
>  <COMPOUND>
COc1cc2c(cc1OC)-c1cc3cc(OC)c(OC)cc3c(=O)n1CC2

>  <TGI>
> 100 µM

$$$$
>  <COMPOUND>
C/C(=N\N=C(N)N)C(CN(C)C)C(c1ccccc1)c1c(O)c2ccccc2oc1=O (centres undefined)

>  <TGI>
> 100 µM

$$$$
>  <COMPOUND>
NC1=Nc2cc(OCCCN3Cc4ccccc4C3)c(OCC3CC3)cc2C12CCCC2

>  <TGI>
15.2 µM

$$$$
>  <COMPOUND>
Cc1cc2nc(N3C(=O)/C(=C/c4ccc(Cl)cc4)N=C3c3ccccc3)sc2cc1C

>  <TGI>
87.6 µM

$$$$
>  <COMPOUND>
c1ccc(-c2cc(-c3cccs3)c(-c3cccs3)o2)cc1

>  <TGI>
> 100 µM

$$$$
>  <COMPOUND>
O=[N+]([O-])c1c2nc3n(c2cc2c1nc1n2CCC1)CCC3

>  <TGI>
> 100 µM

$$$$
>  <COMPOUND>
N#CC1C2CCC3(CC2CCN1C(=O)c1ccccc1)OCCO3 (centres undefined)

>  <TGI>
> 100 µM

$$$$
